Where do these numbers come from? They come from patent US7754689B2.

Molecular target: T1, BMP-12 (UniProt Q7Z4P5 322-450, limits assumed)
T1 construct: also called BMP12/GDF7
T1 sequence (looked up): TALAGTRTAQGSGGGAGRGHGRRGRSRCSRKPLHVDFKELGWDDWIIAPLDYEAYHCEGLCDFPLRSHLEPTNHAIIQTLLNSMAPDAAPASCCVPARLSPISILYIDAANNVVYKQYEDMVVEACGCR
Assay: peptide resin, filter plate; load 5: 25 mM HEPES pH 7.0
No end group written: not given here.

{"binder": "Ac-LYVSDVGWNDWIVK (not fully specified (residue 3); printed as Ac-LYV**SDVGWNDWIVK; also: ** after V3 not explained) [BMP2 C-trunc_2 peptide 746]", "100 mM HAc elution conc": "0.249 mg/mL"}
{"binder": "Ac-RDLGWQDWIIAPEGYAAFYSDGEK [BMP5 peptide 748]", "100 mM HAc elution conc": "0.257 mg/mL"}
{"binder": "Ac-ELGWDDWIIAPLDYEAYHSEGLK [BMP12 N-trun_1S peptide 749]", "100 mM HAc elution conc": "0.28 mg/mL"}
